Each recorded value in this set is attributed to PubChem BioAssay (NCI).

- System: UACC-257 melanoma
- test-method-notes: NCI-60 one-dose screen, 48 h (100 = growth as untreated, 0 = no growth, -100 = all killed)
- condition-summary: 10 µM unless noted
About 83,000 compounds went through this panel and 20% of them were active in at least one assay; those are over-represented in the sample as a whole.
measurement-name: growth (%)
Write the answer as a number in %, unit excluded.

Known results for compounds:
# compound, measurement-name, unit-text, observed
rows = [
    ("COc1ccc2[nH]c(C(=O)OCc3ccc4cccc(O)c4n3)cc2c1", "growth", "%", -70.7),
    ("O=C(C=P(c1ccccc1)(c1ccccc1)c1ccccc1)CCl", "growth", "%", -73.5),
    ("COc1ccc(/C(=C\\c2cc(OC)c(OC)c(OC)c2)C(=O)N2CCN(c3ccccc3)CC2)cc1O", "growth", "%", 93.1),
    ("COc1ccc2nc(C)cc(Nc3ccccc3O)c2c1", "growth", "%", 75.1),
    ("C/C(=C\\C(=N\\N=C(N)N)c1ccc(Cl)cc1)c1ccc(Cl)cc1", "growth", "%", -72.5),
    ("CCN(CC)CCCC(C)N/C(c1cccc(OC)c1)=c1\\c(=O)[nH]n(-c2c3ccccc3nc3ccccc23)c(=O)\\c1=C(/NC(C)CCCN(CC)CC)c1cccc(OC)c1 (configuration not stated)", "growth", "%", -95.5),
]

Moving on to another compound below.
Record request: growth value, item `COc1ccc(-c2nc(-c3cc(OC)cc(OC)c3)[nH]c2-c2ccc(OC)cc2)cc1`
62.9
